Assignment: determine reported IC50 for the given compounds.
target: full-length recombinant human NEK7 (Homo sapiens, UniProt Q8TDX7); construct: full-length recombinant human NEK7; GST (N); purchased SignalChem N09-10G; host or cells: Sf9 insect cells (baculovirus); test: NEK7 enzymatic assay ([33P]-ATP, casein substrate); type: biochemical; conditions: Table 2a; recombinant human NEK7, casein substrate
Sequence (Q8TDX7 whole entry): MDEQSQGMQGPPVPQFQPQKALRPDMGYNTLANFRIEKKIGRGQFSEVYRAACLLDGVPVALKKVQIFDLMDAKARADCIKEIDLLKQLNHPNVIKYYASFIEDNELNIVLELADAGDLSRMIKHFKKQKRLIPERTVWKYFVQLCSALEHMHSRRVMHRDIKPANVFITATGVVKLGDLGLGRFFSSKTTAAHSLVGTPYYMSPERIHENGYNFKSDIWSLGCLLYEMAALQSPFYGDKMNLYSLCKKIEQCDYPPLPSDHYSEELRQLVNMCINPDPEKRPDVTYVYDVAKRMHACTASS

Return IC50 for the following compound: "CC(C)(C)c1cc(NC(=O)Nc2ccc(-c3nn(C4CC(F)(F)C4)c4ncnc(N)c34)cc2F)on1"
501 to 1500 nM

Return IC50 for the following compound: "CC(C)(C)c1cc(NC(=O)Nc2ccc(-c3nn(C4CC4)c4ncnc(N)c34)cc2F)sn1"
501 to 1500 nM

Return IC50 for the following compound: "CC(C)(C)c1nnc(NC(=O)Nc2ccc(-c3nn(C4CC4)c4ncnc(N)c34)cc2F)s1"
501 to 1500 nM

Return IC50 for the following compound: "CC(C)(C)c1cc(NC(=O)Nc2ccc(-c3nn(C4COC4)c4ncnc(N)c34)cc2F)no1"
< 150 nM

Return IC50 for the following compound: CC(C)(C)c1cc(NC(=O)Nc2ccc(-c3nn(C4CCOC4)c4ncnc(N)c34)cc2F)on1 (stereo not shown)
< 150 nM

Return IC50 for the following compound: "CC(C)(C)c1cc(NC(=O)Nc2ccc(-c3nn(-c4ccncc4)c4ncnc(N)c34)cc2F)on1"
301 to 500 nM

Return IC50 for the following compound: "CC(C)(F)c1cc(NC(=O)Nc2ccc(-c3nn(C4CC4)c4ncnc(N)c34)cc2F)on1"
501 to 1500 nM

Return IC50 for the following compound: CC(C)(C)c1cc(NC(=O)Nc2ccc(-c3nn(C4CCOC4)c4ncnc(N)c34)cc2)on1 (stereo not shown)
151 to 300 nM

Return IC50 for the following compound: "CC(C)(C)c1cc(NC(=O)Nc2ccc(-c3nn(C4CC4)c4ncnc(N)c34)cc2)on1"
< 150 nM

Return IC50 for the following compound: "CC(C)(c1cc(NC(=O)Nc2ccc(-c3nn(C4CC4)c4ncnc(N)c34)cc2F)on1)C(F)(F)F"
151 to 300 nM

Return IC50 for the following compound: "Nc1ncnc2c1c(-c1ccc(NC(=O)Nc3cc(C(F)(F)F)no3)c(F)c1)nn2C1CC1"
151 to 300 nM

Return IC50 for the following compound: "CC(C)(C)c1cc(NC(=O)Nc2ccc(-c3nn(C4CC4)c4ccnc(N)c34)cc2F)on1"
< 150 nM

Return IC50 for the following compound: "CC1(c2cc(NC(=O)Nc3ccc(-c4nn(C5CC5)c5ncnc(N)c45)cc3F)on2)CC1"
< 150 nM

Return IC50 for the following compound: "CC(C)(C)c1cc(NC(=O)Nc2ccc(-c3nn(C4CC4)c4ccnc(N)c34)cc2)on1"
501 to 1500 nM

Return IC50 for the following compound: CC(C)(C)c1cc(NC(=O)Nc2ccc(-c3nn(C4CCC(O)CC4)c4ncnc(N)c34)cc2F)on1 (stereo not shown)
< 150 nM

Return IC50 for the following compound: "Nc1ncnc2c1c(-c1ccc(NC(=O)Nc3cc(C4(C(F)(F)F)CC4)no3)c(F)c1)nn2C1CC1"
< 150 nM

Return IC50 for the following compound: "CC(C)n1nc(-c2ccc(NC(=O)Nc3cc(C(C)(C)C)no3)c(Cl)c2)c2c(N)ncnc21"
501 to 1500 nM

Return IC50 for the following compound: "CC(C)(O)Cn1nc(-c2ccc(NC(=O)Nc3cc(C(C)(C)C)no3)c(F)c2)c2c(N)ncnc21"
< 150 nM

Return IC50 for the following compound: CC(C)(C)c1cc(NC(=O)Nc2ccc(-c3nn(C4CCS(=O)(=O)C4)c4ncnc(N)c34)cc2F)on1 (stereo not shown)
151 to 300 nM

Return IC50 for the following compound: "CC(C)(C)c1cc(NC(=O)Nc2ccc(-c3nn(C4CCOCC4)c4ncnc(N)c34)cc2)on1"
301 to 500 nM

Return IC50 for the following compound: CCC(C)c1cc(NC(=O)Nc2ccc(-c3nn(C4CC4)c4ncnc(N)c34)cc2F)on1 (stereo not shown)
151 to 300 nM

Return IC50 for the following compound: CC(C)(C)c1cc(NC(=O)Nc2ccc(-c3nn(C4CCCOC4)c4ncnc(N)c34)cc2F)on1 (stereo not shown)
301 to 500 nM

Return IC50 for the following compound: "CCC(CC)c1cc(NC(=O)Nc2ccc(-c3nn(C4CC4)c4ncnc(N)c34)cc2F)on1"
151 to 300 nM

Return IC50 for the following compound: "CC(C)(C)c1cc(NC(=O)Nc2ccc(-c3nn(C4COC4)c4ncnc(N)c34)cc2)no1"
151 to 300 nM

Return IC50 for the following compound: "CC(C)(C)c1cc(NC(=O)Nc2ccc(-c3nn(C4COC4)c4ncnc(N)c34)cc2)on1"
151 to 300 nM

====

target: full-length recombinant human NEK7 (Homo sapiens, UniProt Q8TDX7); construct: full-length recombinant human NEK7; GST (N); purchased SignalChem N09-10G; host or cells: Sf9 insect cells (baculovirus); assay: NEK7 enzymatic assay ([33P]-ATP, casein substrate); format: biochemical; conditions: Table 2d; recombinant human NEK7, casein substrate
pIC50: −log10 of the molar value.
Assignment: determine reported pIC50 for the given compounds.

Return pIC50 for the following compound: "CN1CCN(Cc2ccc(NC(=O)Nc3ccc(-c4nn(CC(C)(C)O)c5ncnc(N)c45)cc3F)cc2C(F)(F)F)CC1"
> 6.82

Return pIC50 for the following compound: "CN1CCN(Cc2ccc(NC(=O)Nc3ccc(-c4nn(C5CC5)c5ncnc(N)c45)cn3)cc2C(F)(F)F)CC1"
6.52 to 6.82

Return pIC50 for the following compound: CN(C)C1CCN(Cc2ccc(NC(=O)Nc3ccc(-c4cn(C5CC5)c5ncnc(N)c45)cc3F)cc2C(F)(F)F)C1 (stereo not drawn)
> 6.82

Return pIC50 for the following compound: "CN1CCN(Cc2ccc(NC(=O)Nc3ccc(-c4cn(C5CC5)c5ncnc(N)c45)cc3F)c(F)c2)CC1"
5.82 to 6.30

Return pIC50 for the following compound: "Cc1cc(NC(=O)Nc2ccc(-c3cn(C4CC4)c4ncnc(N)c34)cc2F)ccc1N1CCOCC1"
< 5.82

Return pIC50 for the following compound: CCN1CCN(Cc2ccc(NC(=O)Nc3ccc(-c4nn(C5CC5)c5ncnc(N)c45)cc3F)cc2C(F)(F)F)CC1 [Id-49]
> 6.82

Return pIC50 for the following compound: "CN1CCN(Cc2ccc(NC(=O)Nc3ccc(-c4cn(C5CC5)c5ncnc(N)c45)cc3F)cc2Cl)CC1"
> 6.82

Return pIC50 for the following compound: "CN1CCN(Cc2ncc(NC(=O)Nc3ccc(-c4cn(C5CC5)c5ncnc(N)c45)cc3F)cc2C(F)(F)F)CC1"
> 6.82

Return pIC50 for the following compound: "CN1CCN(Cc2ccc(NC(=O)Nc3ccc(-c4nn(C5CC5)c5ncnc(N)c45)cc3F)cc2F)CC1"
> 6.82

Return pIC50 for the following compound: "CCN1CCN(Cc2ccc(NC(=O)Nc3ccc(-c4cn(C5CC5)c5ncnc(N)c45)cc3Cl)cc2C(F)(F)F)CC1"
> 6.82

Return pIC50 for the following compound: "CN1CCN(Cc2ccc(NC(=O)Nc3ncc(-c4cn(C5CC5)c5ncnc(N)c45)cc3F)cc2C(F)(F)F)CC1"
> 6.82

Return pIC50 for the following compound: "CN1CCN(Cc2ccc(NC(=O)Nc3ccc(-c4cn(C5CC5)c5ncnc(N)c45)cc3F)cc2C#N)CC1"
< 5.82

Return pIC50 for the following compound: "CN1CCC(Oc2ccc(NC(=O)Nc3ccc(-c4cn(C5CC5)c5ncnc(N)c45)cc3F)cc2C(F)(F)F)CC1"
> 6.82

Return pIC50 for the following compound: "CCN1CCN(Cc2ccc(NC(=O)Nc3ccc(-c4cn(C5CC5)c5ncnc(N)c45)cc3F)cc2C(F)(F)F)CC1"
> 6.82

Return pIC50 for the following compound: "Cc1cc(NC(=O)Nc2ccc(-c3nn(C4CC4)c4ccnc(N)c34)cc2F)ccc1N1CCOCC1"
< 5.82

====

target: full-length recombinant human NEK7 (Homo sapiens); construct: full-length recombinant human NEK7; GST (N); purchased SignalChem N09-10G; host or cells: Sf9 insect cells (baculovirus); assay: NEK7 enzymatic assay ([33P]-ATP, casein substrate); type: biochemical; conditions: Table 2d; recombinant human NEK7, casein substrate
Assignment: determine reported IC50 for the given compounds.

Under full-length recombinant human NEK7 (Homo sapiens): report IC50 of CN1CCC(Oc2ncc(NC(=O)Nc3ccc(-c4cn(C5CC5)c5ncnc(N)c45)cc3F)cc2C(F)(F)F)CC1 [Id-60] .
> 1500 nM

Under full-length recombinant human NEK7 (Homo sapiens): report IC50 of Nc1ncnc2c1c(-c1ccc(NC(=O)Nc3ccc(CN4CCOCC4)c(F)c3)c(F)c1)nn2C1CC1 [Id-47] .
> 1500 nM

Under full-length recombinant human NEK7 (Homo sapiens): report IC50 of CN1CCN(Cc2ccc(NC(=O)Nc3ccc(-c4cn(C5CC5)c5ncnc(N)c45)cc3F)cc2F)CC1 [Id-35] .
301 to 500 nM

Under full-length recombinant human NEK7 (Homo sapiens): report IC50 of Nc1ncnc2c1c(-c1ccc(NC(=O)Nc3ccc(CN4CCN(CCO)CC4)c(C(F)(F)F)c3)c(F)c1)cn2C1CC1 [Id-41] .
< 150 nM

Under full-length recombinant human NEK7 (Homo sapiens): report IC50 of Nc1ncnc2c1c(-c1ccc(NC(=O)Nc3ccc(CN4CCN(CCO)CC4)c(C(F)F)c3)c(F)c1)cn2C1CC1 [Id-71] .
< 150 nM

Under full-length recombinant human NEK7 (Homo sapiens): report IC50 of CC1CN(C)CCN1Cc1ccc(NC(=O)Nc2ccc(-c3cn(C4CC4)c4ncnc(N)c34)cc2F)cc1C(F)(F)F (stereo not drawn) [Id-69] .
151 to 300 nM

Under full-length recombinant human NEK7 (Homo sapiens): report IC50 of CCN1CCN(Cc2ccc(NC(=O)Nc3ccc(-c4nn(C5CC5)c5ncnc(N)c45)cc3F)cc2C(F)(F)F)CC1 [Id-7] .
> 1500 nM

Under full-length recombinant human NEK7 (Homo sapiens): report IC50 of CCN1CCN(Cc2ccc(NC(=O)Nc3ccc(-c4cn(C5CC5)c5ncnc(N)c45)cc3F)cc2)CC1 [Id-57] .
> 1500 nM

Under full-length recombinant human NEK7 (Homo sapiens): report IC50 of Cc1cc(NC(=O)Nc2ccc(-c3nn(C(C)C)c4ncnc(N)c34)cc2)ccc1N1CCOCC1 [Id-1] .
> 1500 nM

Under full-length recombinant human NEK7 (Homo sapiens): report IC50 of Cc1cn(-c2ccc(NC(=O)Nc3ccc(-c4cn(C5CC5)c5ncnc(N)c45)cc3F)cc2C(F)(F)F)cn1 [Id-23] .
> 1500 nM

Under full-length recombinant human NEK7 (Homo sapiens): report IC50 of CC(C)N1CCN(Cc2ccc(NC(=O)Nc3ccc(-c4cn(C5CC5)c5ncnc(N)c45)cc3F)cc2C(F)(F)F)CC1 [Id-62] .
< 150 nM

Under full-length recombinant human NEK7 (Homo sapiens): report IC50 of CN1CCN(Cc2ccc(NC(=O)Nc3ccc(-c4cn(C5CC5)c5ncnc(N)c45)cc3Cl)cc2C(F)(F)F)CC1 [Id-34] .
151 to 300 nM

Under full-length recombinant human NEK7 (Homo sapiens): report IC50 of CN1CCCN(Cc2ccc(NC(=O)Nc3ccc(-c4cn(C5CC5)c5ncnc(N)c45)cc3F)cc2C(F)(F)F)CC1 [Id-43] .
< 150 nM

Under full-length recombinant human NEK7 (Homo sapiens): report IC50 of CN1CCN(Cc2ccc(NC(=O)Nc3ccc(-c4nn(C5CC5)c5ccnc(N)c45)cn3)cc2C(F)(F)F)CC1 [Id-50] .
301 to 500 nM

Under full-length recombinant human NEK7 (Homo sapiens): report IC50 of CN1CCN(Cc2ccc(NC(=O)Nc3ccc(-c4cn(C5CC5)c5ncnc(N)c45)cc3F)cc2C(F)F)CC1 [Id-58] .
> 1500 nM
